Reference source for all entries: patent US8697694B2

# System: HCV replicon cells
# experimentalDetails: Cell-based HCV replicon assay (replicon RNA level by real time PCR, Taqman)
# measurementSetup: Hepatitis C virus, 72 h, HCV replicon cells, harvested on day 3, replicon RNA by real time PCR; calculated EC90 reported as range class; read-out: EC90 (μM) range
Let's look at some molecules and their measured EC90.

molecule: Cc1nc(NC2CCOCC2)nc(N[C@@H]2C[C@H](CO)[C@@H](O)[C@H]2O)c1-c1nc2ccccc2s1
recordedValue: < 0.5 µM
//
molecule: Cc1cc2cc(-c3c(Cl)nc(NCC4CCCCC4)nc3N[C@@H]3C[C@H](CO)[C@@H](O)[C@H]3O)oc2c(C)n1
recordedValue: < 0.5 µM
//
molecule: Cc1nc(NCCN2CCOCC2)nc(N[C@@H]2C[C@H](CO)[C@@H](O)[C@H]2O)c1-c1nc2ccccc2s1
recordedValue: < 0.5 µM
//
molecule: CCc1cc2cc(-c3c(C)nc(NCC4CC4)nc3N[C@@H]3C[C@H](CO)[C@@H](O)[C@H]3O)oc2cn1
recordedValue: < 0.5 µM
//
molecule: CCCNc1nc(C)c(-c2nc3ccccc3s2)c(N[C@@H]2C[C@H](CO)[C@@H](O)[C@H]2O)n1
recordedValue: < 0.5 µM
//
molecule: OC[C@H]1C[C@@H](Nc2nc(NCC3CC3)nc(Cl)c2-c2nc3ccccc3s2)[C@H](O)[C@@H]1O
recordedValue: < 0.5 µM
//
molecule: OC[C@H]1C[C@@H](Nc2nc(NCc3ccccc3)nc(Cl)c2-c2nc3ccccc3s2)[C@H](O)[C@@H]1O
recordedValue: < 0.5 µM
//
molecule: COC(C)(C)CNc1nc(C)c(-c2nc3ccccc3s2)c(N[C@@H]2C[C@H](CO)[C@@H](O)[C@H]2O)n1
recordedValue: < 0.5 µM
//
molecule: CCCCCNc1nc(Cl)c(-c2nc3ccccc3s2)c(N[C@@H]2C[C@H](CO)[C@@H](O)[C@H]2O)n1
recordedValue: < 0.5 µM
//
molecule: CCCCCNc1nc(C)c(-c2nc3ccccc3s2)c(N[C@@H]2CC[C@H]3OC4(CCCCC4)O[C@@H]23)n1
recordedValue: > 5 µM

Now for the molecule whose EC90 we want.
Entry Cc1ccccc1CNc1nc(C)c(-c2nc3ccccc3s2)c(N[C@@H]2C[C@H](CO)[C@@H](O)[C@H]2O)n1 needs its EC90 filled in; supply it.
< 0.5 µM
